Ref: PubChem BioAssay (NCATS)

ASSAY SYSTEM: Rap guanine nucleotide exchange factor 3 (Homo sapiens) (UniProt O95398)
Sequence (O95398 whole entry, looked up): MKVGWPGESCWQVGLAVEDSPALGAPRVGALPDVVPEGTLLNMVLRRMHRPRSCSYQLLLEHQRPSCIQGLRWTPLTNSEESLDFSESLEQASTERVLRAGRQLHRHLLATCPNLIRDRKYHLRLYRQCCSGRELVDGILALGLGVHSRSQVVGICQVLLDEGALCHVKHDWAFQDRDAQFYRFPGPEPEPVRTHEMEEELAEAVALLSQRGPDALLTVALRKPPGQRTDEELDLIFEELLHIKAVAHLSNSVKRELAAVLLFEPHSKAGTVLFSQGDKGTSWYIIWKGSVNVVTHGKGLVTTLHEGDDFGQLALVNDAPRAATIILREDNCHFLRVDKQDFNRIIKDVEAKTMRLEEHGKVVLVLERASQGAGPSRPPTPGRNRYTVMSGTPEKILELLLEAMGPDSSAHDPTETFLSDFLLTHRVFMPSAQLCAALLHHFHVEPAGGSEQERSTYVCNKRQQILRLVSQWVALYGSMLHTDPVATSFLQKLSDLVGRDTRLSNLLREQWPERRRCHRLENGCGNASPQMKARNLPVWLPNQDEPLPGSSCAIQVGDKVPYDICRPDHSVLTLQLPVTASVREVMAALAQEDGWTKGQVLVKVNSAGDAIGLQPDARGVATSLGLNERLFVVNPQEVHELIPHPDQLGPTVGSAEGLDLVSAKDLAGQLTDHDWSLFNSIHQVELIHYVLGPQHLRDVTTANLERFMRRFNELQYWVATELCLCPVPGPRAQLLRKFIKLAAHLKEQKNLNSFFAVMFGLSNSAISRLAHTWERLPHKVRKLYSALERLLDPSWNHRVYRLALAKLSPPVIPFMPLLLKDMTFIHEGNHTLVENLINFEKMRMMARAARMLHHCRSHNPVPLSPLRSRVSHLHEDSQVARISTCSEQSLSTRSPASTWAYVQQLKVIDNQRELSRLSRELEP
PROTOCOL NOTES: Counterscreen qHTS for antagonist of cAMP-regulated guanine nucleotide exchange factor 3 (EPAC1) (AID 1645888);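 further: fluorescence loss as bound BODIPY-GDP is released from Rap1B; % of control where 0% means no effect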
CONDITION LABEL: Rap1B-BODIPY-GDP nucleotide exchange, fluorescence; series mostly up to 154 µM
Inconclusive results are not listed. Activity calls are given as the source filed them. The call rests on the fitted dose curve; in most records, active means well fitted inhibition curve with a large enough effect; inconclusive means small, poorly fitted or top-dose-only effect; inactive means no such curve, though single readings can be large or run the other way.
MEASUREMENT KIND: activity change, negative = inhibition

Below: 8 molecules and their reported activity change, negative = inhibition.
query: Any idea what its activity change, negative = inhibition is? The molecule is `CCN(C(=O)c1noc2c1COc1ccc(C)cc1-2)c1cccc(C)c1`
result: inactive

query: Any idea what its activity change, negative = inhibition is? The molecule is CCC(=O)NC(c1ccc(OC)cc1)c1c(O)ccc2ccccc12 (centres undefined)
result: inactive

query: Any idea what its activity change, negative = inhibition is? The molecule is `CCn1cc(C=C2C(=O)c3ccccc3C2=O)c2ccccc21`
result: inactive

query: Any idea what its activity change, negative = inhibition is? The molecule is `Cn1c(/C(C#N)=C/c2ccc(-c3ccc(S(N)(=O)=O)cc3)o2)nc2ccccc21`
result: inactive

query: Any idea what its activity change, negative = inhibition is? The molecule is `COC(=O)CCc1nc2cc(Cl)ccc2n(Cc2ccccc2)c1=O`
result: inactive

query: Any idea what its activity change, negative = inhibition is? The molecule is CCN(CC)c1nc2ccccc2nc1C(C#N)C(=O)NCCc1ccccc1 (centres undefined)
result: inactive

query: Any idea what its activity change, negative = inhibition is? The molecule is `Cc1ccc2nc(-c3cccc(Br)c3)c(Cc3ccccn3)n2c1`
result: inactive

query: Any idea what its activity change, negative = inhibition is? The molecule is `COc1cc(NC(=O)C2CCCCC2)c(OC)cc1NC(=O)CN1CCCCC1`
result: -6.17% [at 30.8 µM] (inactive)

Next:
query: Any idea what its activity change, negative = inhibition is? The molecule is `Cc1ccccc1SCC(=O)Nc1cc(C(F)(F)F)ccc1N1CCOCC1`
result: inactive

query: Any idea what its activity change, negative = inhibition is? The molecule is `Cc1occc1-c1nnc(SCC(=O)c2cc3ccccc3oc2=O)o1`
result: -0.143% [at 30.8 µM] (inactive)

query: Any idea what its activity change, negative = inhibition is? The molecule is `C(=C(c1ccccc1)c1ccccc1)c1ccccn1`
result: inactive

query: Any idea what its activity change, negative = inhibition is? The molecule is `COc1cc(/C=C2/SC(=O)NC2=O)ccc1OCc1ccccc1`
result: inactive

query: Any idea what its activity change, negative = inhibition is? The molecule is COC(/C(=N/O)c1ccc(Cl)cc1)c1ccccc1 (centres undefined)
result: -2% [at 30.8 µM] (inactive)

query: Any idea what its activity change, negative = inhibition is? The molecule is `O=C(Nc1ccc2nc3n(c(=O)c2c1)CCCCC3)c1c(F)ccc([N+](=O)[O-])c1F`
result: inactive

query: Any idea what its activity change, negative = inhibition is? The molecule is `O=C(Nc1ccc(N2CCC(N3CCCCC3)CC2)c(C(=O)O)c1)c1ccc(Br)cc1`
result: inactive

query: Any idea what its activity change, negative = inhibition is? The molecule is `CCOC(=O)c1cc(C)sc1NC(=O)CSC1=NCCS1`
result: inactive

query: Any idea what its activity change, negative = inhibition is? The molecule is `O=C(N/N=C/c1ccc(O)c(O)c1)C1c2ccccc2Oc2ccccc21`
result: inactive

query: Any idea what its activity change, negative = inhibition is? The molecule is `CC(=O)c1sc2nc(-c3ccco3)ccc2c1N`
result: inactive

query: Any idea what its activity change, negative = inhibition is? The molecule is `Cc1ccc(-c2c3c(=O)n(C)c(=O)n(C)c3c3c(C(F)(F)F)nc4ccccc4n23)cc1`
result: inactive
